- testSystem: Mfd (Escherichia coli, UniProt P30958 1-1148)
- assay: SPR; 0.5 mM ATPgS; SPR: 30 mM Tris/HCl pH 7.6, 40 mM KCl, 5 mM MgCl2, 0.005% P20, 0.25 mM EDTA, 0.5 mM DTT, 0.5 mM ATPgS, 20 C; smFRET: 20 mM Tris/HCl pH 8.0, 40 mM KCl, 5 mM MgCl2, 1 mM 2-mercaptoethanol
- measurementContext: protein: recombinant; tags: none stated; label: 5' biotin; single strand
recordedEndpoint: Kd

# get_value(readout='Kd', item= bio_dT40_S18 58-mer ssDNA (ssDNA) DNA: TTTTTTTTTTTTTTTTTTTTTTTTTTTTTTTTTTTTTTTTGCCTCGCTGCCGTCGCCA ) ~4 µM
